Cited source for all entries: patent US4225610A

protocol_summary: in vivo
Format: in vivo
test_parameters: mouse, in vivo, po; mice, per os, single administration, 7 days
From the text: The acute toxicity after a single administration of the products per os was studied in mice. The compounds were placed in suspension in a mixture of Tween 80™ and distilled water. […] Exper.
recorded_endpoint: LD50 at 168 h

Answered examples (2):
1) O=C(Nc1nc(-c2ccc(Cl)cc2)cs1)c1cccnc1    > 1000 mg/kg
2) CCCCCCCCCCCC(=O)Nc1nc(-c2ccccc2)cs1    > 1000 mg/kg

### Prompt For the compound shown here, `Nc1nc(-c2ccc(Cl)cc2)cs1` , give the reported LD50 at 168 h.
### Response 300 mg/kg

### Prompt For the compound shown here, `O=C(Nc1nc(-c2ccc(Cl)cc2)cs1)Oc1ccccc1` , give the reported LD50 at 168 h.
### Response > 1000 mg/kg

---

Solubility in methyl pyrrolidone by entry:
protocol_summary: Solubility
test_parameters: methyl pyrrolidone

Answered examples (3):
1) O=C(O)CCC(=O)Nc1nc(-c2ccccc2)cs1    25%
2) CCOC(=O)Nc1nc(-c2ccccc2)cs1 [F 1658, 4-phenyl 2-(ethoxycarboxamido) thiazole]    25%
3) CCCCCCCCCCCCCCCCCC(=O)Nc1nc(-c2ccccc2)cs1    20%

### Prompt For the compound shown here, O=C(Nc1nc(-c2ccccc2)cs1)c1cccnc1 [F 1684, N(4-phenyl 2-thiazolyl) nicotinamide] , give the reported Solubility in methyl pyrrolidone.
### Response 5%

### Prompt For the compound shown here, `O=C(Nc1nc(-c2ccccc2)cs1)Oc1ccccc1` , give the reported Solubility in methyl pyrrolidone.
### Response 3%

---

protocol_summary: in vivo
Assay type: in vivo
test_parameters: mouse, in vivo, po; mice, per os, single administration, 7 days
recorded_endpoint: LD50 at 168 h

1) O=C(O)CCC(=O)Nc1nc(-c2ccccc2)cs1    > 1000 mg/kg
2) O=C(Nc1nc(-c2ccccc2)cs1)Oc1ccccc1    > 1000 mg/kg
3) O=C(Nc1nc(-c2ccc(Cl)cc2)cs1)OCC(Cl)(Cl)Cl    > 1000 mg/kg
4) Nc1nc(-c2ccccc2)cs1    140 mg/kg
5) CCCCCCCCCCCCCCCCCC(=O)Nc1nc(-c2ccccc2)cs1    > 1000 mg/kg

### Prompt For the compound shown here, `O=C(Nc1nc(-c2ccccc2)cs1)OCC(Cl)(Cl)Cl` , give the reported LD50 at 168 h.
### Response > 1000 mg/kg

### Prompt For the compound shown here, `O=C(O)CCC(=O)Nc1nc(-c2ccc(Cl)cc2)cs1` , give the reported LD50 at 168 h.
### Response > 1000 mg/kg

### Prompt For the compound shown here, O=C(Nc1nc(-c2ccccc2)cs1)c1cccnc1 [F 1684, N(4-phenyl 2-thiazolyl) nicotinamide] , give the reported LD50 at 168 h.
### Response > 1000 mg/kg

---

Solubility in methyl pyrrolidone by entry:
protocol_summary: Solubility
test_parameters: methyl pyrrolidone
Give your result in % as a bare value.

Answered examples (5):
1. O=C(Nc1nc(-c2ccc(Cl)cc2)cs1)Oc1ccccc1    5
2. O=C(Nc1nc(-c2ccccc2)cs1)OCC(Cl)(Cl)Cl    20
3. O=C(Nc1nc(-c2ccc(Cl)cc2)cs1)c1cccnc1    20
4. CCCCCCCCCCCC(=O)Nc1nc(-c2ccccc2)cs1    25
5. O=C(O)CCC(=O)Nc1nc(-c2ccc(Cl)cc2)cs1    20

Attention now shifts to the item below.
### Prompt For the compound shown here, `O=C(Nc1nc(-c2ccc(Cl)cc2)cs1)OCC(Cl)(Cl)Cl` , give the reported Solubility in methyl pyrrolidone.
### Response 20
